experiment: Normal-phase TLC on silica gel 60 F254 (Rf); assay type: physicochemical; details: water:methanol:acetonitrile 60:20:20, ammonium acetate pH 7.4
outcome.measure: NP (Rf from NP TLC plate)
Reply briefly: the number, and no unit.

Examples with their reported NP (Rf from NP TLC plate) follow.
COc1cc(N)c(Cl)cc1C(=O)NC1CCN(CCCOc2ccc(F)cc2)CC1OC (stereo not shown) [cisapride] | 0.64
CCCN1C[C@H](CSC)C[C@@H]2c3cccc4[nH]cc(c34)C[C@H]21 [pergolide] | 0.48
CC(C)NCC(O)COc1cccc2ccccc12 (stereo not shown) | 0.54

Problem: In one line, give reported NP (Rf from NP TLC plate) of the entry CN/C(=N/CCSCc1nc[nH]c1C)NC#N .
Solution: 0.64

Problem: Could you please provide reported NP (Rf from NP TLC plate) for CC(C)NCC(O)COc1cccc2[nH]ccc12 (stereo not shown) ? Thanks!
Solution: 0.53

Problem: Tell me its NP (Rf from NP TLC plate) given COCCc1ccc(OCC(O)CNC(C)C)cc1 (stereo not shown) as the entry.
Solution: 0.48

Problem: Provide NP (Rf from NP TLC plate) value for the following molecule: CC(=O)Nc1ccc(O)cc1
Solution: 0.93

Problem: In one line, give reported NP (Rf from NP TLC plate) of the entry CCCCN1CCCCC1C(=O)Nc1c(C)cccc1C (stereo not shown) .
Solution: 0.67

Problem: Please indicate NP (Rf from NP TLC plate) recorded for CC(N)C12CC3CC(CC(C3)C1)C2 (stereo not shown)
Solution: 0.92

Problem: Please indicate NP (Rf from NP TLC plate) recorded for CN1CCN(C(=O)OC2c3nccnc3C(=O)N2c2ccc(Cl)cn2)CC1 (stereo not shown)
Solution: 0.96

Reference source for all entries: paper PMC10384010
